The measurements presented in this section are drawn from patent US20240199745A1.

# test-system: EGFR on EGFR positive non-small cell lung cancer cells NCI-H1650 (UniProt P00533 25-1210)
# assay-notes: cell-based or functional assay
recorded-endpoint: H1650 CTG-3D EC50 (µg/mL)
Reply numerically in µg/mL, unit not repeated.

AbA-ZT (antibody, human IgG1, kappa, V domains shown, synthon ZT on reduced interchain cysteines; average DAR 2 per ADC) VH: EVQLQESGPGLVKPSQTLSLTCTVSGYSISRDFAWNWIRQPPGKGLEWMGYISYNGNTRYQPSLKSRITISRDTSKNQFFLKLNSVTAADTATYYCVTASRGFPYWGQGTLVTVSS VL: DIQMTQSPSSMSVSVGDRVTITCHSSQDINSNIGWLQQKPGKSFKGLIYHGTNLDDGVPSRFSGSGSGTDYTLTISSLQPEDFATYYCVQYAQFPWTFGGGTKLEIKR has a reported H1650 CTG-3D EC50 of 0.35

AbA-AAA (antibody, human IgG1, kappa, V domains shown, synthon AAA on reduced interchain cysteines; average DAR 2 per ADC) VH: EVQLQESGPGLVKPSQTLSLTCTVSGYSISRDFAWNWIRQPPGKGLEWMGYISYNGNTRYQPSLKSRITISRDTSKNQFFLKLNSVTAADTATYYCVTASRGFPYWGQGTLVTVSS VL: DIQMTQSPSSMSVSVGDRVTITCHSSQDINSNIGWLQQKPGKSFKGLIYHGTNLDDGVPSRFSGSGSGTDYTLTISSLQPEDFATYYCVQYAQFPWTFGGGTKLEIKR has a reported H1650 CTG-3D EC50 of 0.65

AbK-TX (antibody, human IgG1, kappa, V domains shown, synthon TX on reduced interchain cysteines; average DAR 2.2 per ADC) VH: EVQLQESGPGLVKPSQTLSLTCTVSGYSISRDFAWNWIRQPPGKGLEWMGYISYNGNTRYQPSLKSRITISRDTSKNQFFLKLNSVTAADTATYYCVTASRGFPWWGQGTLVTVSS VL: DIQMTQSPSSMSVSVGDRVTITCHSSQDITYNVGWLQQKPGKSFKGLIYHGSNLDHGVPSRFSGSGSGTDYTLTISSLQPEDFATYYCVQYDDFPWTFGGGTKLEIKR has a reported H1650 CTG-3D EC50 of 1.07
